Taken from PubChem BioAssay (NCI).

System: SF-268 CNS
Experiment: NCI tumour cell line growth inhibition, 48 h; in the data active means GI50 below about 0.43 µM; inactive means the rest
Can you answer with just one of these options? active, inactive

Query: What is the recorded call for this molecule in the test? COc1cc(N2CCC(N3CCN(C)CC3)CC2)ccc1Nc1ncnc(Nc2ccccc2S(=O)(=O)C(C)C)n1
Reply: inactive

Query: CC(C)[O-].CC(C)[O-].O=C1C=C([O-])C(=O)c2ccccc21.O=C1C=C([O-])C(=O)c2ccccc21.[Ti+4] ?
Reply: inactive

Query: Ok, now COc1cccc(/C=C/[N+](=O)[O-])c1
Reply: inactive

Query: Now give it for COc1ccc(/C(COc2ccc3c(=O)c(-c4ccccc4)coc3c2)=N\O)cc1 too.
Reply: inactive

Query: Try CC(C)C[C@H](NC(=O)Cn1ccc(NCc2ccccc2)cc1=O)B(O)O next.
Reply: inactive

Query: Another molecule to check: COc1ccc(-c2cc(-c3ccc(Cl)cc3)nc(SCCCC(=O)NO)n2)cc1
Reply: inactive

Query: Same again, this time with O=C1NC(=O)C(c2ccccc2Cl)=C1Nc1cc(Cl)c(O)c(Cl)c1
Reply: inactive

Query: Same question for Cc1cc(-c2nc3sccn3c2/C=N/N=C(N)N)c(C)s1 please.
Reply: inactive

Query: Same thing, different molecule: C=C1C(=O)O[C@H]2[C@H]1CC/C(COC(=O)C(=O)c1cn(C)c3ccc(Cl)cc13)=C\CC[C@@]1(C)O[C@@H]21
Reply: inactive

Query: Next molecule: N#CC1=C(N)Oc2c(ccc3ccccc23)C1c1ccccc1 (stereo unspecified)
Reply: active

Query: Consider next the molecule COC(=O)c1cc2c3ccccc3n3c(=O)c4cc5ccccc5nc4c(n1)c23 in the same way.
Reply: inactive

Query: Then what about the molecule CC(=Nc1ccccc1)C1=C(O)C(Cc2ccc(O)cc2)NC1=O (stereo unspecified) ?
Reply: active

Query: CS(=O)(=O)CCNCc1ccc(-c2ccc3ncnc(Nc4ccc(OCc5ccccc5)c(Br)c4)c3c2)o1 , same question.
Reply: inactive

Query: Cool, now CCN(Cc1ccccc1)c1ccc(CO)c(Cl)c1
Reply: inactive

Query: Try the molecule C=C1C(=O)O[C@H]2[C@H]1CC/C(COC(=O)c1cc3ccccc3o1)=C\CC[C@@]1(C)O[C@@H]21
Reply: inactive

Query: Then what about the molecule Cc1ccc2c(-c3ccnc(Nc4ccccc4)n3)c(-c3ccc(F)cc3)nn2n1 ?
Reply: inactive

---

System: SF-539 CNS
Experiment: NCI tumour cell line growth inhibition, 48 h
Quantity Measured: TGI

Query: Quick check: TGI of COc1ccc(C(=O)C(C(=O)CC(=O)Nc2cccc(C(F)(F)F)c2)c2ccc(OC)cc2)cc1 (stereo unspecified) ?
Reply: > 100 µM

Query: Then O=C1O[C@H](c2ccccc2)[C@@H]2CC3(CCN12)OCCO3 ?
Reply: > 100 µM

Query: And the next one, CS(=O)(=O)CCNCc1ccc(-c2ccc3ncnc(Nc4ccc(OCc5ccccc5)c(Br)c4)c3c2)o1 ?
Reply: 13.2 µM

Query: Queued: Cc1cccc(C)c1NC(=O)C(=O)CC(=O)/C=C/c1ccccc1
Reply: > 100 µM

Query: Cool, now O=C1c2ccccc2CN1c1ccc(OCCN2CCCCC2)cc1
Reply: > 10 µM

Query: Check COc1cc(OC)c(SSCCCCS(=O)O)c(OC)c1 too.
Reply: 29.5 µM

Query: Now this one: Clc1nssc1=Nc1nonc1-c1ccccc1
Reply: 66.1 µM

Query: And for CN=c1c2c(c3[nH]c4ccccc4c4cnc1c34)NCCC2=O ?
Reply: > 10 µM

Query: Thanks! And CCn1c(SCC(=O)N/N=C/c2ccccc2)nc2ccccc2c1=O ?
Reply: 38.4 µM

Query: Oc1cc2c3c(c1)CCCN3CCC2 , same question.
Reply: > 10 µM

Query: Would you mind doing O=c1cc(N2CCN(CCCCCOc3cc(O)c4c(=O)cc(-c5ccccc5)oc4c3)CC2)c2ccccc2o1 as well?
Reply: > 100 µM

---

Tested on: SK-MEL-2 melanoma
Test: NCI tumour cell line growth inhibition, 48 h
Quantity Measured: TGI

Query: Entry under review: NC(=O)c1cc2ccc(O)cc2o/c1=N/NC(=O)c1ccccc1 . Reported TGI?
Reply: 91.8 µM

Query: Now this one: CCOP(=O)(OCC)/C(=C/NC(=S)c1ccncc1)C(=O)OC
Reply: > 100 µM

Query: What about C[C@]12CCC(=O)C(O)=C1CC[C@@H]1C2CC[C@]2(C)NC(=O)CCC12 (some centres undefined) ?
Reply: > 100 µM

Query: Same thing, different compound: CC1=C(C(=O)Nc2ccc(Cl)c(Cl)c2)C(c2cccc(Cl)c2)NC(=O)N1 (centres undefined)
Reply: 19.3 µM

Query: What would you report for CCCCN1CN2C(=O)C(C(=O)OCC)C(=O)c3sc4nc(SC)nc1c4c32 (centres undefined) ?
Reply: 36.6 µM

Query: Cool, now Nn1c(CCCCCCCCc2nnc(COc3ccc4ccccc4c3O)n2N)nnc1COc1ccc2ccccc2c1O
Reply: > 100 µM

Query: Cool, now NC(N)=NS(=O)(=O)c1ccc(NNc2c3ccccc3nc3c(C(=O)Nc4ccc(S(=O)(=O)N=C(N)N)cc4)cccc23)cc1
Reply: > 100 µM

Query: Follow-up entry: C1CCCCC2(CCCCCCCCC3(CCC1)OCCO3)OCCO2
Reply: > 100 µM

Query: # repeat for O=c1cc(N2CCN(CCCCCOc3cc(O)c4c(=O)cc(-c5ccccc5)oc4c3)CC2)c2ccccc2o1
Reply: > 100 µM

Query: What would you report for CC(=Nc1ccccc1)C1=C(O)C(Cc2ccc(O)cc2)NC1=O (centres undefined) ?
Reply: > 100 µM

Query: Then this compound: CC(=O)[CH-]C(=O)c1ccccc1.CC(=O)[CH-]C(=O)c1ccccc1.CC(C)CCCC(C)[C@H]1CCC2[C@@H]3CC=C4C[C@@H]([O-])CC[C@]4(C)C3CC[C@@]21C.CC(C)CCCC(C)[C@H]1CCC2[C@@H]3CC=C4C[C@@H]([O-])CC[C@]4(C)C3CC[C@@]21C.[Ti+4] (some centres undefined)
Reply: > 100 µM

Query: Subsequent entry: CCO/C=N\c1c(C#N)c(-c2ccc(Cl)cc2)cn1-c1ccc(C)cc1
Reply: > 100 µM

Query: How about CNC(=O)c1ccc(N2C(=S)N(c3ccc(C#N)c(C(F)(F)F)c3)C(=O)C2(C)C)cc1F ?
Reply: > 71.9 µM

Query: // query: O=C(O)C1CCCCC1C(=O)Nn1cnnc1 (centres undefined)
Reply: > 100 µM

Query: Please do the same for N#CC1=C(N)Oc2c(ccc3ccccc23)C1c1ccccc1 (centres undefined) as well.
Reply: 12.6 µM

Query: And COC(=O)c1cc2c3ccccc3n3c(=O)c4cc5ccccc5nc4c(n1)c23 ?
Reply: > 100 µM

Query: What would you report for COc1ccc(C2SCC(=O)N2NC(=O)c2ccncc2)cc1F (centres undefined) ?
Reply: > 100 µM

Query: Another compound: Cc1cc(C)c(S(=O)(=O)N2CCCN(S(=O)(=O)c3c(C)cc(C)cc3C)OCCCO2)c(C)c1
Reply: > 100 µM

Query: Next: CC(=O)c1cccc(C)c1C(=O)O
Reply: > 100 µM

---

Field: TGI. Provide a value for each of the molecules that follow.
Tested on: HCT-116 colon
Experiment: NCI tumour cell line growth inhibition, 48 h

Query: Any idea what its TGI is? The molecule is CC(=O)c1cccc(C)c1C(=O)O
Reply: > 100 µM

Query: Another molecule to look at: N#CC1C(=O)SC2c3ccccc3C(=O)c3ccccc3C12 (stereo not drawn)
Reply: > 10 µM

Query: Entry to check: C=C(C#N)C1OCC2OC(C)(C)OC21 (stereo not drawn)
Reply: 38.4 µM

Query: Please answer likewise for CCN(CC)CCC(=O)c1ccc(C)cc1
Reply: 36.8 µM

Query: Also, COc1ccc(-c2oc(=O)ccc2-c2cc(OC)c(OC)c(OC)c2)cc1O please.
Reply: > 86.6 µM

Query: And what about the molecule Cc1ccc(NC2=C(Cl)C(=O)N(Cc3ccc(Cl)cc3)C2=O)cc1O ?
Reply: 29 µM

Query: Please answer likewise for O=C(CCc1nnc2s/c(=C\c3ccc(Cl)c(Cl)c3)c(=O)n12)Nc1ccc(Cl)c(Cl)c1
Reply: > 100 µM

Query: How about O=S(CC1(O)CCCCC1)c1ccccc1 (stereo not drawn) ?
Reply: > 100 µM

Query: Next up: CCOC(=O)/C(=C\c1ccc(N(CCC#N)CCC#N)cc1)NC(=O)c1cc([N+](=O)[O-])ccc1Cl
Reply: > 100 µM

Query: What about this molecule? O=C(Nc1ccccc1)c1cc2ccccc2c(N=Nc2ccc([N+](=O)[O-])cc2)c1O
Reply: > 100 µM

Query: Same thing, different molecule: COc1ccc2nccc(SCC(=O)O)c2c1
Reply: > 100 µM

Query: Moving on to the next molecule: COc1ccc(-c2c3c(cc4cc5c(cc24)OCO5)C(=O)OC3)cc1OC
Reply: 12.1 µM

Query: Entry Nc1ccc2c(=O)cc(-c3cccs3)[nH]c2n1 please
Reply: > 50.8 µM

Query: And the next one, CNC(=S)NC(=O)c1c(Cl)n(C(=O)OC(C)(C)C)c2ccccc12 ?
Reply: > 100 µM

Query: Entry to check: CCCCCCc1ccc(C(=O)NO)cc1
Reply: > 100 µM

Query: Could you do the same for CC(=C/C=C/C=C(C)\C=C\C=C(\C)C(=O)O)/C=C/C=C(/C)C(=O)O , please?
Reply: > 100 µM

Query: Same for COC(=O)CC[C@]1(C)O[C@H]2[C@H]([C@@H](C)CCCC(C)=O)OC(=O)[C@@H]2C[C@H]1O
Reply: > 100 µM

Query: Also CSC1=Nc2ccccc2-c2nc3ccccc3cc2C1 , if possible.
Reply: > 100 µM

Query: Also check CCOP(=O)(OCC)/C(=C/NC(=S)c1ccncc1)C(=O)OC
Reply: > 100 µM

Query: # repeat for O=C1c2ccccc2C(=O)N1CC1S(=O)(=O)OCCOS1(=O)=O
Reply: > 100 µM

Query: Now give it for CCCC[C@H]1[C@@H](OCOc2ccccc2)COC(=O)N1[C@H](C)c1ccccc1 too.
Reply: 20.8 µM

Query: COc1cc2ncn(-c3cc(O[C@@H](C)c4ccccc4Cl)c(C(N)=O)s3)c2cc1OC , same question.
Reply: > 25 µM

Query: Would you mind doing Nc1c2c(c(O)c3c1=C(CO)C=N3)=NCCS2 as well?
Reply: 0.524 µM
